Where a name gives a salt, the structure may show the parent alone.
measurementType: melting point

Below, each entry is followed by its recorded melting point result.
[
  {
    "compound": "CCCOc1cccc2c1[C@@H](c1ccc3c(c1)OCO3)[C@@H](C(=O)O)[C@H]2c1ccc(OC)cc1OCC(=O)O (racemic)",
    "melting point": "201 to 206 °C"
  },
  {
    "compound": "C=CCCOc1ccc2c(c1)[C@@H](c1ccc(OC)cc1)[C@H](C(=O)O)[C@@H]2c1ccc2c(c1)OCO2 (racemic)",
    "melting point": "127 to 129 °C"
  },
  {
    "compound": "CCCOc1ccc2c(c1)[C@H](c1ccccc1O)[C@@H](C(=O)O)[C@@H]2c1ccc2c(c1)OCO2 (racemic)",
    "melting point": "97 to 98 °C"
  },
  {
    "compound": "O=C(O)C1[C@H](c2ccccc2)c2ccccc2[C@H]1c1ccccc1 (racemic) (as salt: sodium)",
    "melting point": "220 to 222 °C (dec.)"
  },
  {
    "compound": "CCCOc1ccc2c(c1)[C@H](c1ccc(OC)cc1OCC#N)[C@@H](C(=O)O)[C@@H]2c1ccc2c(c1)OCO2 (racemic)",
    "melting point": "199 to 201 °C"
  }
]

Next:
Query string: Give its melting point value. Item: COc1ccc([C@H]2c3ccccc3[C@@H](c3ccc(OC)c(OC)c3)[C@@H]2C(=O)O)cc1 (racemic)
Result string: 126 to 128 °C
